# System: biotinyl-Met-oxazolone
# test: self-aminoacylation, catalytic enhancement (BMO) (fold over background); higher = more active; k-Seq, kA / k0A0; sequences stand for … in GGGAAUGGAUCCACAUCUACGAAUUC…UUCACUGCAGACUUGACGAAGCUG
Fewer inactive variants are shown than the library holds.
experimental-endpoint: self-aminoacylation
Numbers only.

Use these answered entries as a reference point.
# entry-sequence, self-aminoacylation
measured = [
    ("CUACUUCCACCAAUCGGUCUG [Fam1A.1 aminoacylation ribozyme variant]", 0.684),
    ("UUUACCCUGGUCAUCGUGUGA [Fam2.1 aminoacylation ribozyme variant]", 2.98),
    ("CUACUACUAACAAUCGGUCUG [Fam1A.1 aminoacylation ribozyme variant]", 0.729),
    ("AUUCACCUAGGUCAUCAGUUG [Fam2.2 aminoacylation ribozyme variant]", 0.88),
]

Can you give me self-aminoacylation for all of these, one by one?
1. AGGUUUGCUAAUAGACGCAAG [Fam3.1 aminoacylation ribozyme variant]
2. AUUCACCUGAGUCAUCGGGUG [Fam2.2 aminoacylation ribozyme variant]
3. CCACACUUCCAGCAAUCGCUC [Fam1B.1 aminoacylation ribozyme variant]
4. AUUUACCUAGGUCAGCGGGUG [Fam2.2 aminoacylation ribozyme variant]
5. AGGUUUGCUAAUAGGCGCAAG [Fam3.1 aminoacylation ribozyme variant]
6. AUUCUUCUAGGUCAUCGGGUG [Fam2.2 aminoacylation ribozyme variant]

A:
[0.529, 13, 1.54, 4.01, 0.736, 7.87]

Would you be so kind as to report self-aminoacylation for each listed record?
1. AUUCCGCUGGUCAUCGAGUGA [Fam2.1 aminoacylation ribozyme variant]
2. AUUCACCUAUGUCAUCGGCUG [Fam2.2 aminoacylation ribozyme variant]

A:
1: 6.08; 2: 1.21

----------
# System: biotinyl-Phe-oxazolone
# test: self-aminoacylation, catalytic enhancement (BFO) (fold over background); higher = more active; k-Seq, kA / k0A0; sequences stand for … in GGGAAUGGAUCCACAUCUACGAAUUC…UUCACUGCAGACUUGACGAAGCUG
Fewer inactive variants are shown than the library holds.
Mark True for reported self-aminoacylation of 6 or greater; mark False for anything smaller.

# entry-sequence, class
data = [
    ("CGACUUCAUACAAUCGGUCUG [Fam1A.1 aminoacylation ribozyme variant]", "False"),
]

Q: Entry UUUACGCUGGUCAUCGAGUGA [Fam2.1 aminoacylation ribozyme variant] : is its self-aminoacylation no less than 6?
A: True

Q: Quick check: does AUUCACCUCGGUCAUAGGGUG [Fam2.2 aminoacylation ribozyme variant] have self-aminoacylation greater than or equal to 6?
A: False

Q: Hello, I need to know if AUUAGCCUGAUCAUCGAGUGA [Fam2.1 aminoacylation ribozyme variant] has measured self-aminoacylation not below 6. Thanks!
A: True

Q: API: above_or_equal(metric=self-aminoacylation, cutoff=6) for item AUUACCCUGCACAUCGAGUGA [Fam2.1 aminoacylation ribozyme variant]
A: True

Q: API: above_or_equal(metric=self-aminoacylation, cutoff=6) for item CUACUUAAGACAAUCGGUCUG [Fam1A.1 aminoacylation ribozyme variant]
A: False

Q: Tell me whether self-aminoacylation is at least 6 here: AUUACCCUCGUCAUCGUGUGA [Fam2.1 aminoacylation ribozyme variant]
A: False

Q: Assess whether reported self-aminoacylation for AUUCAUCUAGGUCAUCGUGUG [Fam2.2 aminoacylation ribozyme variant] sits at 6 or higher.
A: False

Q: Identify whether the reported self-aminoacylation of the following sequence is 6 or greater: AAGUUUGCUAAUAGUCCCACG [Fam3.1 aminoacylation ribozyme variant]
A: False

----------
# Tested on: biotinyl-Ile-oxazolone
# test: self-aminoacylation, catalytic enhancement (BIO) (fold over background); higher = more active; k-Seq, kA / k0A0; sequences stand for … in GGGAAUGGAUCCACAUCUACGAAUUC…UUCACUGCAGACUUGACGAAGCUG
Variants at the floor of the assay were thinned out.
I'd appreciate it if you could supply self-aminoacylation values for the items below.
One number for each entry.

# entry-sequence, self-aminoacylation
measured = [
    ("AUUCACAUAGCUCAUCGGGUG [Fam2.2 aminoacylation ribozyme variant]", 2),
    ("AUGACCCUGGUCAUCGUGUGA [Fam2.1 aminoacylation ribozyme variant]", 1.4),
    ("CCACAUCAAACAAUCGGUCUG [Fam1A.1 aminoacylation ribozyme variant]", 1.13),
    ("CGACUUCAAACAAUGGGUCUG [Fam1A.1 aminoacylation ribozyme variant]", 1.2),
    ("AAGUUUGCUAACAGUCGCAAU [Fam3.1 aminoacylation ribozyme variant]", 1.13),
]

I need self-aminoacylation for every entry listed below, if you could help.
1. AUUCGCCCAGGUCAUCGGGUG [Fam2.2 aminoacylation ribozyme variant]
2. UGACUUCAAACAAUCGGUCUG [Fam1A.1 aminoacylation ribozyme variant]
3. CUACUUCAAACAAUCGGAGUG [Fam1A.1 aminoacylation ribozyme variant]
4. CCACAUUUCAAGUAAUCGGUC [Fam1B.1 aminoacylation ribozyme variant]
5. CCACACUUCAAGAAACCGGUC [Fam1B.1 aminoacylation ribozyme variant]
6. AAGUUUGCUAAAAAUCGCAAG [Fam3.1 aminoacylation ribozyme variant]

A:
1: 4.14; 2: 1.73; 3: 3.06; 4: 1.21; 5: 0.998; 6: 1.09

Consider the following items and state reported self-aminoacylation for each.
1. CUACUUUAAACAAUCGGUGUG [Fam1A.1 aminoacylation ribozyme variant]
2. CGACACUUCAAGCAAUCGGAC [Fam1B.1 aminoacylation ribozyme variant]
3. AAGUAUGCUAAUAGUCGCAAA [Fam3.1 aminoacylation ribozyme variant]
4. CCAGACUUCAAGCAAUCGGUU [Fam1B.1 aminoacylation ribozyme variant]
5. AAGUUUGCUAUUAGUCGAAAG [Fam3.1 aminoacylation ribozyme variant]
6. AUUCACCUGGUUCAUCGGGUG [Fam2.2 aminoacylation ribozyme variant]
7. AUUCACCUAGCUCAUCGGUUG [Fam2.2 aminoacylation ribozyme variant]

A:
[0.722, 1.67, 1.82, 2.02, 1.07, 2.42, 0.978]

----------
# Tested on: biotinyl-Phe-oxazolone
# test: self-aminoacylation, catalytic enhancement (BFO) (fold over background); higher = more active; k-Seq, kA / k0A0; sequences stand for … in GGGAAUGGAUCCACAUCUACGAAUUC…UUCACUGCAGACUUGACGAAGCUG
Fewer inactive variants are shown than the library holds.
Hi, to clarify the labels: met covers self-aminoacylation from 10 upward, not met covers anything below 10.

Below are worked cases with known answers.
# entry-sequence, class
data = [
    ("CCACAGUUCAAGCAAUGGGUC [Fam1B.1 aminoacylation ribozyme variant]", "not met"),
    ("AUUACCCUAGACAUCGAGUGA [Fam2.1 aminoacylation ribozyme variant]", "met"),
    ("AUUACCCUCGUCGUCGAGUGA [Fam2.1 aminoacylation ribozyme variant]", "not met"),
    ("CCACACGUCAAGCAAUAGGUC [Fam1B.1 aminoacylation ribozyme variant]", "not met"),
    ("AUGCACUUAGGUCAUCGGGUG [Fam2.2 aminoacylation ribozyme variant]", "met"),
]

Q: Please check the record CUACUUCAAACGAUCGCUCUG [Fam1A.1 aminoacylation ribozyme variant] and state if its self-aminoacylation is at or above 10.
A: not met

Q: Quick check, self-aminoacylation >= 10? UGGUUUGCUAAUAGUCGCAAG [Fam3.1 aminoacylation ribozyme variant]
A: not met

Q: Item CCACACUGCAAGCACUCGGUC [Fam1B.1 aminoacylation ribozyme variant] with self-aminoacylation of 10 or above?
A: not met

Q: Check the entry CUGCACUUCAAGCAAUCGGUC [Fam1B.1 aminoacylation ribozyme variant] : does self-aminoacylation equal or exceed 10?
A: met

Q: Threshold query (self-aminoacylation >= 10) on ACUACCCUGGUCAUCUAGUGA [Fam2.1 aminoacylation ribozyme variant]
A: met

Q: Given the entry AUUACCCUGGUCUACGAGUGA [Fam2.1 aminoacylation ribozyme variant] , answer whether its self-aminoacylation meets or surpasses 10.
A: met

Q: Quick check: does AAGUAUGCUAGUAGUCGCAAG [Fam3.1 aminoacylation ribozyme variant] have self-aminoacylation greater than or equal to 10?
A: not met

----------
# System: biotinyl-Phe-oxazolone
# test: self-aminoacylation, catalytic enhancement (BFO) (fold over background); higher = more active; k-Seq, kA / k0A0; sequences stand for … in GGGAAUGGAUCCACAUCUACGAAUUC…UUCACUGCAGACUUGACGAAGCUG
Fewer inactive variants are shown than the library holds.
Everything with self-aminoacylation lower than 20 is n; everything else, including exactly 20, is y.

Completed entries (count: 8):
# entry-sequence, class
records = [
    ("CCCCACUUCAAGCCAUCGGUC [Fam1B.1 aminoacylation ribozyme variant]", "n"),
    ("AUUACCCGGUUCAUCGAGUGA [Fam2.1 aminoacylation ribozyme variant]", "n"),
    ("AUUCUCCUAGGUCAUCGGGUA [Fam2.2 aminoacylation ribozyme variant]", "y"),
    ("CUACUUCAAACAAUCGGACUU [Fam1A.1 aminoacylation ribozyme variant]", "n"),
    ("AAUACCCUGGUUAUCGAGUGA [Fam2.1 aminoacylation ribozyme variant]", "y"),
    ("CCACACUUCCAGCAAUGGGUC [Fam1B.1 aminoacylation ribozyme variant]", "n"),
    ("AUUCACCGAGGCCAUCGGGUG [Fam2.2 aminoacylation ribozyme variant]", "y"),
    ("AUUCAGCUAGGUCAUCGGGUG [Fam2.2 aminoacylation ribozyme variant]", "y"),
]

Now take the following sequence into account.
Q: Confirm if self-aminoacylation reported for the sequence CUACGCUUCAAGCAAUCGGUC [Fam1B.1 aminoacylation ribozyme variant] is 20 or above.
A: y
